From: patent US20240051985A1

For each of the compounds below, state its pIC50.
- TARGET_OR_SYSTEM: METTL3/METTL14 (Homo sapiens, UniProt Q86U44)
- Sequence (Q86U44 whole entry, species assumed): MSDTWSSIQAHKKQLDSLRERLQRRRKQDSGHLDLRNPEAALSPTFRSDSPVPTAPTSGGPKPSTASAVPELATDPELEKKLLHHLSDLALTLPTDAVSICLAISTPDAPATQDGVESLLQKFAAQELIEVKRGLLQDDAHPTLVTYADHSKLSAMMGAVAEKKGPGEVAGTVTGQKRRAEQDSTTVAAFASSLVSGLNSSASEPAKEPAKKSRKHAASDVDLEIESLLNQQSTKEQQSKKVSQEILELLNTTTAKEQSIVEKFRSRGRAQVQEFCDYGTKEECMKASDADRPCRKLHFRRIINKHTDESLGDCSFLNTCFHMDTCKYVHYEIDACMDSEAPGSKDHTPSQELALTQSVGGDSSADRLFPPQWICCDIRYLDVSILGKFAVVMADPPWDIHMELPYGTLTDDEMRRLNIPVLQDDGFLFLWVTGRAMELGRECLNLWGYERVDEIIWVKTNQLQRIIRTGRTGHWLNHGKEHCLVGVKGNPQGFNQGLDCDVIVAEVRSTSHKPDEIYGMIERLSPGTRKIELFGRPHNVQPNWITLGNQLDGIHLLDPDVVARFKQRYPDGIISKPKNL
- Sequence (Q9HCE5 whole entry partner, species assumed): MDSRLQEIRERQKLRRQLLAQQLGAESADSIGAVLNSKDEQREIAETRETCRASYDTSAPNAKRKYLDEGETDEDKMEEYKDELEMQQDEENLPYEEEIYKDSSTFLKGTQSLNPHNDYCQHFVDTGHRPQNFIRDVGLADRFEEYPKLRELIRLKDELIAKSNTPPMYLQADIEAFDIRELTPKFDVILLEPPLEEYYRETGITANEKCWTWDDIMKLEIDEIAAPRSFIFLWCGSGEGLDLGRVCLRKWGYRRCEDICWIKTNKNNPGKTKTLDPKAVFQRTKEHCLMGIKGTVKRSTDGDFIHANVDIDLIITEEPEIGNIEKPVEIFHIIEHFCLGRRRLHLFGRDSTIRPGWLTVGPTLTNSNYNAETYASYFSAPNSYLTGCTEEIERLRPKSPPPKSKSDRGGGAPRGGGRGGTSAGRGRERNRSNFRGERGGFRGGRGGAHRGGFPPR
- PROTOCOL_SUMMARY: METTL3-14 standard enzyme assay (3H-SAM flashplate)
- TEST_CONDITIONS: Table 4; METTL3 biochemical assay
pIC50: −log10 of the molar value.

# pIC50 (compound: CN(C)CCCNC(=O)[C@H]1O[C@@H](n2cc(-c3ccn(C)n3)c3c(N)ncnc32)[C@H](O)[C@@H]1O ) is ≤ 6.00

# pIC50 (compound: Cn1ccc(-c2cn([C@@H]3O[C@H](C(=O)NC4CCNC(C)(C)C4)[C@@H](O)[C@H]3O)c3ncnc(N)c23)n1 (stereo partly drawn) ) is 6.00 to 7.00

# pIC50 (compound: Cn1ccc(-c2cn([C@@H]3O[C@H](C(=O)Nc4cc(NC5CCC5)ccn4)[C@@H](O)[C@H]3O)c3ncnc(N)c23)n1 ) is 6.00 to 7.00

---

- TARGET_OR_SYSTEM: UniProtKB O14744
- PROTOCOL_SUMMARY: PRMT5 assay (3H-SAM flashplate)
- TEST_CONDITIONS: Table 4; PRMT5 biochemical assay
QUANTITY: IC50

Test item Nc1ncnc2c1ccn2[C@@H]1O[C@H](C(=O)Nc2ccc3ccc(N4CCC4)nc3c2)[C@@H](O)[C@@H]1F [Compound I-34] ; UniProtKB O14744; reported IC50 was ≥ 1000 nM

Test item COC(=O)[C@@H](N)CCNC(=O)[C@H]1O[C@@H](n2cc(-c3ccn(C)n3)c3c(N)ncnc32)[C@H](O)[C@@H]1O [Compound I-42] ; UniProtKB O14744; reported IC50 was 100 to 1000 nM

Test item C[C@@H]1C[C@@H](NC(=O)[C@H]2O[C@@H](n3cc(-c4ccn(C)n4)c4c(N)ncnc43)[C@H](O)[C@@H]2O)CCN1C [Compound I-233] ; UniProtKB O14744; reported IC50 was 100 to 1000 nM

---

- TARGET_OR_SYSTEM: FLT3 (Homo sapiens)
- Sequence (P36888 27-993, species assumed): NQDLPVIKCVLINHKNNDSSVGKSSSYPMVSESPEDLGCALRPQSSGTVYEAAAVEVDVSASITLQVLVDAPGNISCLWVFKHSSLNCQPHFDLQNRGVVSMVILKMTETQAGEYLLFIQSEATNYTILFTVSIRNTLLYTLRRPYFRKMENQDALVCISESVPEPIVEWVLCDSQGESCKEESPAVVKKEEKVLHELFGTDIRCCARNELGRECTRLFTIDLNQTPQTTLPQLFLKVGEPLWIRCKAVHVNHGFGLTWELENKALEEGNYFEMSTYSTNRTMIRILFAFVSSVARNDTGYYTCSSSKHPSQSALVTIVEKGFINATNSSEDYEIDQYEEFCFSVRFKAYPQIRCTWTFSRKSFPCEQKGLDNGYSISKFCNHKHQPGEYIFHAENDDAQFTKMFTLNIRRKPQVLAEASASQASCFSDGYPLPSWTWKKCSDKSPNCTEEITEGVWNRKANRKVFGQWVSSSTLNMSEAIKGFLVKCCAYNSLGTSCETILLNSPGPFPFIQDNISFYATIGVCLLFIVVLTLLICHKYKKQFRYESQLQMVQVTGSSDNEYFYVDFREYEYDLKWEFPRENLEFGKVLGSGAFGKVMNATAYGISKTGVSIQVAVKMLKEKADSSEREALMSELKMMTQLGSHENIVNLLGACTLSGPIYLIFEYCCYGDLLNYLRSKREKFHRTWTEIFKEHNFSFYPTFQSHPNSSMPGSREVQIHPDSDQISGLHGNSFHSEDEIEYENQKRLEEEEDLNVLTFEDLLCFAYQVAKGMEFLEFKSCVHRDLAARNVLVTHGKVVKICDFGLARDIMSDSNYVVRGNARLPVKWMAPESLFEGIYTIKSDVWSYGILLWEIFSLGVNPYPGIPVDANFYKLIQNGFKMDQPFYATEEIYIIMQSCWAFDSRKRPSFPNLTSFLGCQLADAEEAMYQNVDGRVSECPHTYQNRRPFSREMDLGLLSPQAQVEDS
- PROTOCOL_SUMMARY: FLT3 LanthaScreen assay
- Assay type: biochemical
- TEST_CONDITIONS: Table 4
pIC50: −log10 of the molar value.
For each of the compounds below, state its pIC50.

# pIC50 (compound: CN1CCC(N(CCC#N)C(=O)[C@H]2O[C@@H](n3cc(-c4ccn(C)n4)c4c(N)ncnc43)[C@H](O)[C@@H]2O)CC1 ) is ≤ 6.00

# pIC50 (compound: COC(=O)[C@@H](N)CCNC(=O)[C@H]1O[C@@H](n2cc(-c3ccn(C)n3)c3c(N)ncnc32)[C@H](O)[C@@H]1O ) is ≤ 6.00

# pIC50 (compound: Cn1ccc(-c2cn([C@@H]3O[C@H](C(=O)NCC[C@H](N)C(=O)O)[C@@H](O)[C@H]3O)c3ncnc(N)c23)n1 ) is ≤ 6.00

---

- TARGET_OR_SYSTEM: PRMT5-MEP50 (Homo sapiens)
- Sequence (O14744 whole entry): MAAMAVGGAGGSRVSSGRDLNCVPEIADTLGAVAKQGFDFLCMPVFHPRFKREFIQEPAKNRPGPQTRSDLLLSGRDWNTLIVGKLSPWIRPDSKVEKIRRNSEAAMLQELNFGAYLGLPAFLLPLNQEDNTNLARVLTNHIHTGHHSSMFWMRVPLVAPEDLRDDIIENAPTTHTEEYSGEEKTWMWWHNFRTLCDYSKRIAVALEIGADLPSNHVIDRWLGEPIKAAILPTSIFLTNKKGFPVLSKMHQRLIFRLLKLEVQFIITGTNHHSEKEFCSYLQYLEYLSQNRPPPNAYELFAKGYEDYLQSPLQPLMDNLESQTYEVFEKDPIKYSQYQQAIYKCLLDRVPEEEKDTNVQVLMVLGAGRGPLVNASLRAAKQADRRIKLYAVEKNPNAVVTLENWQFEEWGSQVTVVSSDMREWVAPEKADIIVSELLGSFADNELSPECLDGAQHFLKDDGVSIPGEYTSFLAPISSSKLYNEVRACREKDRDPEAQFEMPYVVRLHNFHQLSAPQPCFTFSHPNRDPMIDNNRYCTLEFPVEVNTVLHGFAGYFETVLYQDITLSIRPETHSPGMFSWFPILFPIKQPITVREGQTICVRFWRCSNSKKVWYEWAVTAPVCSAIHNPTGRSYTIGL
- Sequence (Q9BQA1 whole entry partner): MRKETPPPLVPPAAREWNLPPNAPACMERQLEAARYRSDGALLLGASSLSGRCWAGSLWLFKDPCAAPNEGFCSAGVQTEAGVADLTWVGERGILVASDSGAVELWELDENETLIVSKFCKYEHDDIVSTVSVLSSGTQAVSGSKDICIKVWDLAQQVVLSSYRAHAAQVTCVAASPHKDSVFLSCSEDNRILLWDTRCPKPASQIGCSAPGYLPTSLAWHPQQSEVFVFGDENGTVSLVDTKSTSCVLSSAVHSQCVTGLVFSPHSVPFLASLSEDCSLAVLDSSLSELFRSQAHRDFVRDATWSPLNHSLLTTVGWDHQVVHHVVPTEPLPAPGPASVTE
- PROTOCOL_SUMMARY: PRMT5 assay (3H-SAM flashplate)
- TEST_CONDITIONS: Table 4; PRMT5 biochemical assay
QUANTITY: IC50

# IC50 (compound: Cn1ccc(-c2cn([C@@H]3O[C@H](C(=O)Nc4cc(NC5CCC5)ncn4)[C@@H](O)[C@H]3O)c3ncnc(N)c23)n1 ) is 100 to 1000 nM

# IC50 (compound: Cn1ccc(-c2cn([C@@H]3O[C@H](C(=O)N[C@H]4CCc5nc(N)sc5C4)[C@@H](O)[C@H]3O)c3ncnc(N)c23)n1 ) is ≥ 1000 nM

# IC50 (compound: CNc1ccc2ccc(N(CC[C@H](N)C(=O)O)C(=O)[C@H]3O[C@@H](n4cc(-c5ccn(C)n5)c5c(N)ncnc54)[C@H](O)[C@@H]3O)cc2n1 ) is 100 to 1000 nM

# IC50 (compound: C#CCCCN(C(=O)[C@H]1O[C@@H](n2cc(-c3ccn(C)n3)c3c(N)ncnc32)[C@H](O)[C@@H]1O)C1CCN(C)CC1 ) is < 10 nM

# IC50 (compound: CN1CCC(NC(=O)[C@H]2O[C@@H](n3cc(-c4ccn(C)n4)c4c(N)ncnc43)[C@H](O)[C@@H]2O)CC1=O (stereo partly drawn) ) is ≥ 1000 nM

# IC50 (compound: N#Cc1cn([C@@H]2O[C@H](C(=O)Nc3ccc4ccc(N5CCC5)nc4c3)[C@@H](O)[C@H]2O)c2ncnc(N)c12 ) is 100 to 1000 nM

---

- TARGET_OR_SYSTEM: UniProtKB O14744
- PROTOCOL_SUMMARY: PRMT5 assay (3H-SAM flashplate)
- TEST_CONDITIONS: Table 3; PRMT5 biochemical assay
pIC50: −log10 of the molar value.
For each of the compounds below, state its pIC50.

# pIC50 (compound: CN1CCC(N(CC[C@H](N)C(=O)O)C(=O)[C@H]2O[C@@H](n3cc(-c4ccn(C)n4)c4c(N)ncnc43)[C@H](O)[C@@H]2O)CC1 ) is > 8.00

# pIC50 (compound: CN(C)CCNC(=O)[C@H]1O[C@@H](n2cc(-c3ccn(C)n3)c3c(N)ncnc32)[C@H](O)[C@@H]1O ) is 7.00 to 8.00

# pIC50 (compound: Nc1ccnc(NC(=O)[C@H]2O[C@@H](n3cc(-n4cccn4)c4c(N)ncnc43)C[C@@H]2O)c1 ) is ≤ 6.00

# pIC50 (compound: COCCCN(C)C(=O)[C@H]1O[C@@H](n2cc(-c3ccn(C)n3)c3c(N)ncnc32)[C@H](O)[C@@H]1O ) is ≤ 6.00

# pIC50 (compound: Cn1ccc(-c2cn([C@@H]3O[C@H](C(=O)NCC4CCOCC4)[C@@H](O)[C@H]3O)c3ncnc(N)c23)n1 ) is ≤ 6.00

# pIC50 (compound: COCCN(C(=O)[C@H]1O[C@@H](n2ccc3c(N)ncnc32)[C@H](O)[C@@H]1O)c1ccc2ccc(N3CCC3)nc2c1 ) is ≤ 6.00

# pIC50 (compound: Nc1ncnc2c1c(-n1cccn1)cn2[C@H]1C[C@H](O)[C@@H](C(=O)Nc2ccc3ccc(N4CCC4)nc3c2)O1 ) is ≤ 6.00

# pIC50 (compound: Cn1ccc(-c2cn([C@@H]3O[C@H](C(=O)NC4CCNCC4)[C@@H](O)[C@H]3O)c3ncnc(N)c23)n1 ) is ≤ 6.00

# pIC50 (compound: CCNc1ccnc(NC(=O)[C@H]2O[C@@H](n3cc(-n4cccn4)c4c(N)ncnc43)C[C@@H]2O)c1 ) is ≤ 6.00

# pIC50 (compound: Nc1ncnc2c1c(-n1cccn1)cn2[C@H]1C[C@H](O)[C@@H](C(=O)Nc2ccc3nc(NC4CCC4)[nH]c3c2)O1 ) is 6.00 to 7.00

# pIC50 (compound: CN1CCC(CNC(=O)[C@H]2O[C@@H](n3cc(-c4ccn(C)n4)c4c(N)ncnc43)[C@H](O)[C@@H]2O)CC1 ) is 7.00 to 8.00

# pIC50 (compound: CN1CCC(NC(=O)[C@H]2O[C@@H](n3cc(-c4ccn(C)n4)c4c(N)ncnc43)[C@H](O)[C@@H]2O)CC1 ) is 7.00 to 8.00

# pIC50 (compound: CN1CCC(NC(=O)[C@H]2O[C@@H](n3ccc4c(N)ncnc43)[C@H](O)[C@@H]2O)CC1 ) is 6.00 to 7.00

---

For each of the molecules below, state its pIC50.
- TARGET_OR_SYSTEM: FLT3-ITD (Homo sapiens)
- PROTOCOL_SUMMARY: FLT3-ITD Caliper assay
- Format: biochemical
- TEST_CONDITIONS: Table 4; read-out: FLT3-ITD Calipher assay IC50
pIC50: −log10 of the molar value.

Test item COc1cccc(NC(=O)[C@H]2O[C@@H](n3cc(-c4ccn(C)n4)c4c(N)ncnc43)[C@H](O)[C@@H]2O)c1 ; FLT3-ITD (Homo sapiens); reported pIC50 was ≤ 6.00

Test item Cn1ccc(-c2cn([C@@H]3O[C@H](C(=O)NCCc4ccccc4)[C@@H](O)[C@H]3O)c3ncnc(N)c23)n1 ; FLT3-ITD (Homo sapiens); reported pIC50 was ≤ 6.00

Test item Cn1ccc(-c2cn([C@@H]3O[C@H](C(=O)Nc4ccccc4)[C@@H](O)[C@H]3O)c3ncnc(N)c23)n1 ; FLT3-ITD (Homo sapiens); reported pIC50 was ≤ 6.00

Test item Cn1ccc(-c2cn([C@@H]3O[C@H](C(=O)NC4CCc5nc(N)sc5C4)[C@@H](O)[C@H]3O)c3ncnc(N)c23)n1 (stereo in doubt) ; FLT3-ITD (Homo sapiens); reported pIC50 was ≤ 6.00

Test item Cn1ccc(-c2cn([C@@H]3O[C@H](C(=O)Nc4cc[nH]n4)[C@@H](O)[C@H]3O)c3ncnc(N)c23)n1 ; FLT3-ITD (Homo sapiens); reported pIC50 was 6.00 to 7.00

Test item Cn1ccc(-c2cn([C@@H]3O[C@H](C(=O)N[C@@H]4CCC(=O)NC4)[C@@H](O)[C@H]3O)c3ncnc(N)c23)n1 ; FLT3-ITD (Homo sapiens); reported pIC50 was ≤ 6.00
